This section presents compounds with their documented Emax values.
- tgt: hCB2R (Homo sapiens, UniProt P34972)
- Sequence (P34972 whole entry): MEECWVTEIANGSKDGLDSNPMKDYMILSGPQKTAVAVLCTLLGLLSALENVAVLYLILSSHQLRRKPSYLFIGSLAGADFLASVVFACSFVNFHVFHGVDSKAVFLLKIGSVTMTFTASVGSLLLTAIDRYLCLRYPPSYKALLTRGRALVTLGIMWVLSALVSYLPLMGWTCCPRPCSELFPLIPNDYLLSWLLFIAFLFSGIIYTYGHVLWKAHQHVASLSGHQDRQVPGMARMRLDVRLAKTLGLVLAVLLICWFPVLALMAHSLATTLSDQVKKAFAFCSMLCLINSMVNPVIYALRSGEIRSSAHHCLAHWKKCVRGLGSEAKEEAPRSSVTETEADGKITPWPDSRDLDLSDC
- method: biochemical
- Assay type: biochemical
- Design: expressed in transfected cells; host or cells: Flp-In-293 (Invitrogen #R750-07), pcDNA5/FRT
- measurement context: read-out: Emax ± SEM GTPγS hCB2R

| compound | tgt | Emax [%] |
| --- | --- | --- |
| CCCCCCC(C)(C)c1ccc([C@@H]2C[C@H](O)CC[C@H]2CCCO)c(O)c1 [CP55940] | hCB2R (Homo sapiens, UniProt P34972) | 95 |
| CCCCC/C=C\C/C=C\C/C=C\C/C=C\CCCC(=O)NCCO [Anandamide, N-arachidonoylethanolamine] | hCB2R (Homo sapiens, UniProt P34972) | 31 |
| CCCCCCC(C)(C)c1cc(OC)c([C@@H]2C=C(CO)[C@@H]3C[C@H]2C3(C)C)c(OC)c1 [HU308] | hCB2R (Homo sapiens, UniProt P34972) | 97 |
| CCCCC/C=C\C/C=C\C/C=C\C/C=C\CCCC(=O)OC(CO)CO [2-AG, 2-arachidonoyl glycerol] | hCB2R (Homo sapiens, UniProt P34972) | 57 |
